Tested on: U251 CNS
Experiment: NCI-60 one-dose screen, 48 h (100 = growth as untreated, 0 = no growth, -100 = all killed)
Conditions: 10 µM unless noted
The panel holds about 83,000 compounds, 20% with a hit somewhere; the sample as a whole holds those more often.
observation-type: growth (%)
One number for each entry, in %.

Some solved entries appear below for comparison.
CCCCC1=C(Br)C(=O)c2nc(C)ccc2C1=O = 89.6
CN1CCN(c2ccc(/C=C/C(=O)c3ccc(O)cc3)cc2)CC1 = 86.7
COc1ccc(Cn2cc(C(=O)Nc3cccnc3Nc3ccccc3)nn2)cc1 = 99.5
O=C(N=Nc1c(O)[nH]c2ccccc12)Nc1ccccc1Cl = 92.2
CN(Cc1ccccc1)c1nc(Cl)c(C2CC(c3ccc4c(c3)OCO4)=NN2c2cc(Cl)cc(Cl)c2)s1 (configuration not stated) = 98.1
Cn1cc2c(=O)nc3c(-c4nc5ccccc5[nH]4)n[nH]n3c2n1 = 89.6
COc1ccc2c(c1)c(-c1nc(-c3c[nH]c4c(Cl)nccc34)cs1)cn2C = 86.5
CNC(=O)c1cc(Oc2ccc3nc(NC(=O)Nc4ccc(C(F)(F)F)cc4)sc3c2)ccn1 = 22.4

Report growth for every entry below.
1. CN1CCCc2cc(/C=C3\SC(=S)N(C(Cc4ccc(O)cc4)C(=O)O)C3=O)ccc21 (configuration not stated)
2. CCN(CC)CC(=O)Nc1ccc2ncnc(Nc3ccc(Oc4cccc(F)c4)c(Cl)c3)c2c1
3. COc1cc(/C=C2\CCC/C(=C\c3cc(CN4CCCC4)c(O)c(OC)c3)C2=O)cc(CN2CCCC2)c1O
4. CCOC(=O)c1cnn(CC(O)CC)c1NC(=O)NCc1ccccc1C(F)(F)F (configuration not stated)
5. Nc1nc(Nc2ccc(F)cc2)nn1C(=O)c1cc(Cl)ccc1Cl
6. COc1ccc(C(=O)N/N=C/c2ccc(O)cc2O)cc1Nc1ccnc(C(F)(F)F)c1
7. NC(N)=NC(N)=NCCCc1ccco1
8. CCOC(=O)C(=Cc1ccc(C#N)cc1)C(=O)OCC

[94.7, 45.2, 25.3, 101, 76.1, 28.3, 101, 50.3]

Report growth for every entry below.
1. Cc1ccc(-c2nc3nc(-c4ccccc4)nc(N4CCCNCC4)c3o2)cc1
2. CS(=O)(=O)Nc1cc(-c2ccc3ncnc(Nc4ccc(F)c(Cl)c4)c3c2)cnc1Cl
3. C=CCNC(=O)Cc1c(-c2ccc(OC)cc2)oc2c(OC)c3c(c(OC)c12)OCO3
4. O=C(Cn1cc(CN2CCN(c3ccnc4cc(Cl)ccc34)CC2)nn1)Nc1cccc([N+](=O)[O-])c1
5. COC(=O)c1c2c(c(C)[n+]([O-])c1C)C(=O)C(NCCN1CCOCC1)=CC2=O

[-84.9, 3.05, 105, 81.6, 83.6]

Report growth for every entry below.
1. COc1ccc(Nc2ncnc3ccc(-c4cncc(NS(C)(=O)=O)c4)cc23)cc1Cl
2. Cc1ccc(/C=C(\C#N)c2cc3ccccc3[nH]2)cc1
3. CCCCCC#CC1OC23CCCCC2C(C#N)(C(=N)O3)C1(C#N)C#N (configuration not stated)
4. Cc1ccc(/C=C2\COc3ccc(O)c(O)c3C2=O)cc1
5. COc1ccc(C2=C(CN)C(O)NC(=NCC(=O)c3ccc4ccccc4c3)N2)cc1 (configuration not stated)

[12, 38, 96.4, -3.38, 102]

Report growth for every entry below.
1. C=C1CC[C@@H]2[C@](C)(COC(C)=O)[C@H](OC(C)=O)CC[C@@]2(C)[C@@H]1CC(Nc1ccc(S(=O)(=O)Nc2nccs2)cc1)C1=CCOC1=O (some centres not stated)
2. CC(=NCc1ccccc1)c1ccc(O)cc1O
3. O=C(Cc1ccc(F)cc1)c1ccccc1

1. 4.21
2. 101
3. 106

Report growth for every entry below.
1. Cc1oc2c(Cc3ccc(NC(=O)c4ccc(Cl)cc4)cc3)ncnc2c1C(=O)NO
2. CCN1CCN(CC(=O)Nc2nc3ccc(NCc4ccc(C)cc4)cc3s2)CC1
3. CCC(=O)Oc1cc(Cl)c(Cl)cc1Cl

104
60.2
98.1
